target_desc: polyclonal IgG (Gammanorm, Octapharma, Sweden)
measurement_notes: SPR (Biacore 8K+), variant amine-coupled to CM5, Gammanorm as analyte, steady state fit
measured_quantity: Kd (nM)

Here are 5 binders together with their reported answers.
{"binder": "pAM245 (Protein L C3 domain; H, H, Q at positions 10, 45, 60) (designed binder) PKEEVTIKVHLIFADGKIQTAEFKGTFEEATAKAYAYANLLAKEHGEYTADLEDGGNTIQIKFAGKETPETPEE", "recorded_number": 134}
{"binder": "pAM248 (D1 domain; N10H, N45H, N60Q) (designed binder) PKEEVTIKAHLIFADGKTQTAEFKGTFEEATAEAYRYADLLAKVHGEYTADLEDGGYTIQIKFAGKEQPGEN", "recorded_number": 56}
{"binder": "pAM262 (D1 domain; N10H, N45H, N60Y) (designed binder) PKEEVTIKAHLIFADGKTQTAEFKGTFEEATAEAYRYADLLAKVHGEYTADLEDGGYTIYIKFAGKEQPGEN", "recorded_number": 48}
{"binder": "pAM260 (Protein L C3b domain; N10H, N45H, N60Y) (designed binder) PKEEVTIKVHLIFADGKIQTAEFKGTFEEATAKAYAYADLLAKEHGEYTADLEDGGYTIYIKFAGKETPETPEE", "recorded_number": 51}
{"binder": "pAM251 (Protein L B2 domain; N10H, N45H, N60Y) (designed binder) PKEEVTIKAHLIYADGKTQTAEFKGTFEEAAAEAYRYADALKKDHGEYTVDVADKGYTLYIKFAGKEKTPEE", "recorded_number": 55}

A = pAM255 (Protein L C1 domain; H, H, Y at positions 10, 45, 60) (designed binder) PEEEVTIKAHLIFADGSTQNAEFKGTFAKAVSDAYAYADALKKDHGEYTVDVADKGLTLYIKFAGKKEKPEE
B = pAM241 (Protein L C1 domain; H, H, Q at positions 10, 45, 60) (designed binder) PEEEVTIKAHLIFADGSTQNAEFKGTFAKAVSDAYAYADALKKDHGEYTVDVADKGLTLQIKFAGKKEKPEE
Prompt: Consider A and B . Which of these has its Kd at a higher number? Respond using the label that marks the chosen record.
Completion: A
(A: 324 nM, B: 187 nM)

1 = pAM243 (Protein L C2 domain; H, H, Q at positions 10, 45, 60) (designed binder) PKEEVTIKVHLIFADGKTQTAEFKGTFEEATAKAYAYADLLAKEHGEYTADLEDGGNTIQIKFAGKETPETPEE
2 = pAM244 (Protein L C2b domain; N10H, N45H, N60Q) (designed binder) PKEEVTIKVHLIFADGKTQTAEFKGTFEEATAKAYAYADLLAKEHGEYTADLEDGGYTIQIKFAGKETPETPEE
Prompt: # compare Kd for 1 vs 2 ; return the one with the smaller value # answer = label of selected item
Completion: 2
